- TARGET UNDER TEST: Human B0AT1 (Homo sapiens (Human), UniProt Q695T7)
- Sequence (Q695T7 whole entry): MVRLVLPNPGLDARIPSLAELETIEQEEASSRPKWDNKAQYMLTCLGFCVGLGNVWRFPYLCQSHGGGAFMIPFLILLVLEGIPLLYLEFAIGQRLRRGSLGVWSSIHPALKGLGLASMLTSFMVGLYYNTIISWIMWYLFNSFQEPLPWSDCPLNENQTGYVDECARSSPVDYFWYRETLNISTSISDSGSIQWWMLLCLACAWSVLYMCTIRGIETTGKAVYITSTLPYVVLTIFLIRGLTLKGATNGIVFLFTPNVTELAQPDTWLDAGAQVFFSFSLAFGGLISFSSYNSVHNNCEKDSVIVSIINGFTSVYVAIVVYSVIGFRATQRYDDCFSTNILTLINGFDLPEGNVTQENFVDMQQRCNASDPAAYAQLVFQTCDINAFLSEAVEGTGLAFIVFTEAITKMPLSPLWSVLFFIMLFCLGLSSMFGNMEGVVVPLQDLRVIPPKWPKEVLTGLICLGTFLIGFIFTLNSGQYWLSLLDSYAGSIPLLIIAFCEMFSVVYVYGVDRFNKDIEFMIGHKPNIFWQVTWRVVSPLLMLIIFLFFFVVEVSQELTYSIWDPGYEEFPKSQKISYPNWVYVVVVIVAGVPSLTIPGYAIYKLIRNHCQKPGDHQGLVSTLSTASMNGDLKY
- ASSAY COMMENT: hB0AT1 inhibitory test (phenylalanine uptake)
- Format: cell-based
- SETTINGS: Human B0AT1 stable expression CHO cells; [3H]-L-phenylalanine uptake, phenylalanine 0.25 mM
The following compounds are shown together with reported pIC50 values.
# reply with the number alone; pIC50 is -log10 of concentration in mol/L

{"COMPOUND": "O=C(/C=C/c1ccc(C(F)(F)F)cc1)NCC(=O)N1CCc2cc(Br)ccc21 [I-260]", "TARGET UNDER TEST": "Human B0AT1 (Homo sapiens (Human), UniProt Q695T7)", "MEASURED RESULT": 7.62}

Requested field: pIC50. Item: O=C(/C=C/c1ccc(C(F)(F)F)cc1)NCC(=O)N1CCn2ncc(C(=O)N3CCC(F)(F)C3)c2C1 [I-280]
7.31

Requested field: pIC50. Item: O=C(/C=C/c1ccc(C(F)(F)F)cc1)NCC(=O)N1CCN2C(=O)OC[C@@H]2C1 [I-33]
6.50

Requested field: pIC50. Item: COCCN(CCS(C)(=O)=O)C(=O)CNC(=O)/C=C/c1ccc(C(F)(F)F)cc1 [I-51]
6.41

Requested field: pIC50. Item: CN1CCN(C(=O)CNC(=O)/C=C/c2ccc(C(F)(F)F)cc2)CC1=O [I-17]
6.71

Requested field: pIC50. Item: CN1CCN(C(=O)CNC(=O)/C=C/c2ccc(-c3ccccc3)cc2)CC1 [I-103]
7.51

Requested field: pIC50. Item: CCC1Cn2ncnc2CN1C(=O)CNC(=O)/C=C/c1ccc(C(F)(F)F)cc1 (stereo not drawn) [I-218]
6.45

All figures here come from patent US20250170126A1.
